Value source: patent US20260159533A1

target: human C1s protein (Homo sapiens, UniProt P09871); construct: purchased R&D Systems or Complement Technologies 2060-SE or A104; assay: recombinant C1s enzymatic assay (YLGR-Rh110-dPro substrate hydrolysis, fluorescence); assay type: biochemical; details: recombinant human C1s 2.5 nM, substrate YLGR-Rh110-dPro 20 μM, 15 min pre-incubation, 60 min RT; read-out: rec. hC11s pIC50 (converted)
Sequence (P09871 16-688): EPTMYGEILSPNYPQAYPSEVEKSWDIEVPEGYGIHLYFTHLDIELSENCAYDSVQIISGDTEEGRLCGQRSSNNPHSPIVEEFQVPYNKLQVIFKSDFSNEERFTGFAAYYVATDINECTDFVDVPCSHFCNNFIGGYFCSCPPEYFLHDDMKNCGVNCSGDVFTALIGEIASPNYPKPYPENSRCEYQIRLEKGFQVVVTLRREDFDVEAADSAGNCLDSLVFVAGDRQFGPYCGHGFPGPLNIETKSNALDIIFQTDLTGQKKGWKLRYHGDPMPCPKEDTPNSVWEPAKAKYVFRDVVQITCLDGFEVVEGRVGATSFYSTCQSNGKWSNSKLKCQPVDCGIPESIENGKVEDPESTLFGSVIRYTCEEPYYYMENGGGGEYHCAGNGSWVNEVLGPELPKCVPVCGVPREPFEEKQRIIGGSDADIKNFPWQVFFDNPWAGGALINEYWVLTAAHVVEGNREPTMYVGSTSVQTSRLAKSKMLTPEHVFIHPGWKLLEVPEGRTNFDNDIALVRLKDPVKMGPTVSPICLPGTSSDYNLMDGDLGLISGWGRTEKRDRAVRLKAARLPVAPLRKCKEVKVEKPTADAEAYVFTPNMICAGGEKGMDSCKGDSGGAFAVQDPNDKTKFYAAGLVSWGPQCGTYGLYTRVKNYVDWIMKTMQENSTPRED
Structures can show the parent of a compound that is named as a salt.
readoutType: IC50 (nM)

In the examples that follow, each entry is paired with its recorded IC50.
| compound | IC50 [nM] |
| --- | --- |
| COc1cc(-c2ncc[nH]2)c(-c2ccc3c(N)cnnc3c2)cc1B(O)O [Example 46] | 3.89 |
| COc1cc(-c2ncc(C(F)(F)F)s2)c(-c2ccc3c(N)cnnc3c2)cc1B(O)O [Example 83] | 1.23 |
| N#Cc1ccnn1-c1ccc(B(O)O)cc1-c1ccc2c(N)cnnc2c1 [Example 22] | 0.851 |
| Nc1cnnc2cc(-c3cc(B(O)O)ccc3-c3ccccn3)ccc12 [Example 63, formic acid salt] | 15.5 |
| Nc1cnnc2cc(-c3cc(B(O)O)ccc3-c3ncccn3)ccc12 [Example 26, formic acid salt] | 7.24 |

[a] COc1cc(-c2ncns2)c(-c2ccc3c(N)cnnc3c2)cc1B(O)O [Example 91, formic acid salt]
[b] COc1cc(-n2cccn2)c(-c2ccc3c(N)cnnc3c2)cc1B(O)O [Example 23]
[c] Nc1cnnc2cc(-c3cc(B(O)O)ccc3-c3nccs3)ccc12 [Example 24, formic acid salt]
Task field, ranking: reported IC50, descending order. Arrange the labels as the request states and list them. c, b, a
